Assay: Pharmacokinetics experiments in CD-1 mice
Format: in vivo, mouse
Conditions: CD-1, mouse, plasma, po; gavage 5 mg/kg
Measured Endpoint: Tmax (h)
Report the value in h with no unit label.

Ask: Endpoint output: Tmax of CC#CCn1c(N2CCC[C@@H](N)C2)nc2c1c(=O)n(Cc1nccnc1C#N)c(=O)n2C . Value?
Reply: 1.33

---

Biological target: CYP1A2 (Homo sapiens (Human))
Sequence (P05177 whole entry): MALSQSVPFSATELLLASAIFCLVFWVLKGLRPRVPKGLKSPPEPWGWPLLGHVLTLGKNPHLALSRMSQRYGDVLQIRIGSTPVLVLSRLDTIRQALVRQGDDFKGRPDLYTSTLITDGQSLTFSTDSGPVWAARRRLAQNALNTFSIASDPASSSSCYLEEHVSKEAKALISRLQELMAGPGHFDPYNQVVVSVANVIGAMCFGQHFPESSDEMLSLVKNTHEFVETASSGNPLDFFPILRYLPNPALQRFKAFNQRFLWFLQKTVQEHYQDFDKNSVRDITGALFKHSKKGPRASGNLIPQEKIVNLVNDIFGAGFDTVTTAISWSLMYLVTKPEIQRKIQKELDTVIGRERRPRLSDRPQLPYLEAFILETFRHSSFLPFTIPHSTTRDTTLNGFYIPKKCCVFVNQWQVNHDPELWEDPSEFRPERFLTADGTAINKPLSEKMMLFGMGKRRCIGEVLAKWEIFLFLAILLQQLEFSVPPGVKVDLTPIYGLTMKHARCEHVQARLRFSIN
Experiment: in vitro
Type: in vitro ADME
Settings: human, microsomes
Measured Endpoint: inhibition at 5 µM (%)
Give the number; % is assumed, so skip it.

Ask: Item under review: CC#CCn1c(N2CCC[C@@H](N)C2)nc2c1c(=O)n(Cc1nccnc1C#N)c(=O)n2C . Reported inhibition at 5 µM?
Reply: 6.6

---

Target: CYP3A4 (Homo sapiens (Human), UniProt P08684)
Sequence (P08684 whole entry): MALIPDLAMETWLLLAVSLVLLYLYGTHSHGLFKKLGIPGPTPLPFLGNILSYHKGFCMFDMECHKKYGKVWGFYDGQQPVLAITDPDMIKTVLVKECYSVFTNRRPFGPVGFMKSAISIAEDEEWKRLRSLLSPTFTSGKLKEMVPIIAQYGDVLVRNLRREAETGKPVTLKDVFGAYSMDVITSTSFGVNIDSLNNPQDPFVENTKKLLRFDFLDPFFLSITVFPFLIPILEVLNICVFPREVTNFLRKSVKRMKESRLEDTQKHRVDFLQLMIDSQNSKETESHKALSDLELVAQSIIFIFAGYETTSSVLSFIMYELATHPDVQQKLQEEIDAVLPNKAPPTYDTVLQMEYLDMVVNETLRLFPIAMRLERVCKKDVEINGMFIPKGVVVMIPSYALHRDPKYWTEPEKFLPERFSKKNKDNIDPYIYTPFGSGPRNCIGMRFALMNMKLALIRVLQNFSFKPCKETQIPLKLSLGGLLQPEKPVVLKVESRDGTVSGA
Assay: in vitro
Format: in vitro ADME
Settings: human, microsomes
Measured Endpoint: inhibition at 0.05 µM (%)
I only need the number, in %, no unit after it.

Ask: Fill blank: measured inhibition at 0.05 µM of the molecule CC#CCn1c(N2CCC[C@@H](N)C2)nc2c1c(=O)n(Cc1nccnc1C#N)c(=O)n2C [Compound I-3] is ____.
Reply: 0

---

Molecular target: humanized recombinant DPP9 (Homo sapiens (Human), UniProt Q86TI2)
Sequence (Q86TI2 whole entry): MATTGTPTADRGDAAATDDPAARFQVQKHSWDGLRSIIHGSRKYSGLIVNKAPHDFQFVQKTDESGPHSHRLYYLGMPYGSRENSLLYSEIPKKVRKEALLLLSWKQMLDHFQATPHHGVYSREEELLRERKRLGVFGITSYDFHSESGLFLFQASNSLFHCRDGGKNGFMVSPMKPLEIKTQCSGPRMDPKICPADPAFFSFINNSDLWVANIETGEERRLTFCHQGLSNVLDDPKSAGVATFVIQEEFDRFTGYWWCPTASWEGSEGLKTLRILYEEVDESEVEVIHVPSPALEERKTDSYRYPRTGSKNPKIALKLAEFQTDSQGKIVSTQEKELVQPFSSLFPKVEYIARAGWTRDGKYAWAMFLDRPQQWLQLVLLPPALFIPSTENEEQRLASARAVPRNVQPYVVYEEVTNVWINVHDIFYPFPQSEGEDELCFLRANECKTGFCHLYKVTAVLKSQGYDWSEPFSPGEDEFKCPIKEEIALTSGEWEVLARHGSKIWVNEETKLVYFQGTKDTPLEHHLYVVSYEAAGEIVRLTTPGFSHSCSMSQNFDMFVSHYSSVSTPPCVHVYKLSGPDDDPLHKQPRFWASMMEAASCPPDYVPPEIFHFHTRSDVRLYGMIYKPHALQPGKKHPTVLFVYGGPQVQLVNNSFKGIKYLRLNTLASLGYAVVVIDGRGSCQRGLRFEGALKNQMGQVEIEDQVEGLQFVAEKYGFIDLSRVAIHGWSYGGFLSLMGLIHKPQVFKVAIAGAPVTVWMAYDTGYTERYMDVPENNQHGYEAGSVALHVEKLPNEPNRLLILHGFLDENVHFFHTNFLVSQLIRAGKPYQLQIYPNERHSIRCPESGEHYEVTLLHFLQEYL
Assay: Drug selectivity experiment in vitro, DPP9
pIC50: −log10 of the molar value.
Measured Endpoint: pIC50

Ask: What value of pIC50 has been recorded for this entry: CC#CCn1c(N2CCC[C@@H](N)C2)nc2c1c(=O)n(Cc1nccnc1C#N)c(=O)n2C
Reply: < 4.00

---

Target: CYP2D6 (Homo sapiens (Human), UniProt P10635)
Sequence (P10635 whole entry): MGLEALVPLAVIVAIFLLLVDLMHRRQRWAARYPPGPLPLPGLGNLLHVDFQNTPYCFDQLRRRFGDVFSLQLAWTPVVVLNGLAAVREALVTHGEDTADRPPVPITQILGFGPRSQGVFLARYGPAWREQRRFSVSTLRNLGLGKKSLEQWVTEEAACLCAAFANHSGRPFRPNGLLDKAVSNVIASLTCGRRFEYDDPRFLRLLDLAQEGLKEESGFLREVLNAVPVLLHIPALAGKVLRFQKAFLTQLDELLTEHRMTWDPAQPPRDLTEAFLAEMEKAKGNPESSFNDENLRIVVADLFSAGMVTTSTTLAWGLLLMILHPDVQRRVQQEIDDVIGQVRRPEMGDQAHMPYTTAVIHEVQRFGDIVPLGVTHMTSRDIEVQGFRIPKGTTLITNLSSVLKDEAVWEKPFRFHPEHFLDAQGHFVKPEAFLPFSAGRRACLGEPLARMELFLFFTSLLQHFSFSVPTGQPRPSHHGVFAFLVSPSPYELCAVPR
Experiment: in vitro
Type: in vitro ADME
Details: human, microsomes
Measured Endpoint: inhibition at 5 µM
# include the unit after the value

Ask: Fill in: inhibition at 5 µM of CC#CCn1c(N2CCC[C@@H](N)C2)nc2c1c(=O)n(Cc1nccnc1C#N)c(=O)n2C is ___
Reply: 0%

---

Target: CYP1A2 (Homo sapiens (Human))
Experiment: in vitro
Assay type: in vitro ADME
Details: human, microsomes
Measured Endpoint: inhibition at 0.5 µM

Ask: Dear colleague, I am looking for the recorded inhibition at 0.5 µM of the following compound: CC#CCn1c(N2CCC[C@@H](N)C2)nc2c1c(=O)n(Cc1nccnc1C#N)c(=O)n2C
Reply: 2.2%

---

Biological target: humanized recombinant DPP-IV (Homo sapiens (Human), UniProt P27487)
Sequence (P27487 whole entry): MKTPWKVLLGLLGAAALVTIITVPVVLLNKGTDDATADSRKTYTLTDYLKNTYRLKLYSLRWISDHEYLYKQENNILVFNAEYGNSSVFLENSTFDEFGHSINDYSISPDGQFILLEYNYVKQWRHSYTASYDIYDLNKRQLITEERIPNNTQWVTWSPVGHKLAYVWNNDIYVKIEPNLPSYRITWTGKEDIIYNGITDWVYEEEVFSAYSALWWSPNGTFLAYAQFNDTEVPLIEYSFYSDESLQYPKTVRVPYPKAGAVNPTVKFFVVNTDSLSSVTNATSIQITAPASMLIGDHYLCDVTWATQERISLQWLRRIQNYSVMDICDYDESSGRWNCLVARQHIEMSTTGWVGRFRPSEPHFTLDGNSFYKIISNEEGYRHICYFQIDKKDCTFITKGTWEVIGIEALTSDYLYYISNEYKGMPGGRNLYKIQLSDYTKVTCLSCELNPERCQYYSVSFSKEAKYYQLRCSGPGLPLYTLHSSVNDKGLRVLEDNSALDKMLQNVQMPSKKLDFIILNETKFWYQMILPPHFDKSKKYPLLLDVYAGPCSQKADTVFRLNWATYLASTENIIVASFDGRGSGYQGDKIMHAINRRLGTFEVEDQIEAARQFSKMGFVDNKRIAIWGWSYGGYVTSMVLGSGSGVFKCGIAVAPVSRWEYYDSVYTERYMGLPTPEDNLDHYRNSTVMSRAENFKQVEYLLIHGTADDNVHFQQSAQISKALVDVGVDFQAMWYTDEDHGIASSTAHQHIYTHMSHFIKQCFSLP
Assay: DPP-IV activity inhibition test in vitro (DPPIV-Glo luminescence)
Assay type: biochemical
Details: Table 2; read-out: DPP4 IC50
Experimental: (1) DPP-IV Activity Inhibition Tests In Vitro […] 3.2 Diluting dipeptidyl peptidase IV (Sigma) to 0.2 ng/ml solution with 10 mM Tris-HCl (pH 8.0), adding the samples to be detected in, per well 25 μl. […]
Measured Endpoint: pIC50
pIC50 field: float, defined as -log10 of concentration (mol/L).

Ask: Field request: pIC50 | item: CC#CCn1c(N2CCC[C@@H](N)C2)nc2c1c(=O)n(Cc1nccnc1C#N)c(=O)n2C
Reply: 10.10

---

Biological target: UniProtKB P08684
pIC50: −log10 of the molar value.
Measured Endpoint: pIC50

Ask: Can you share its pIC50? I mean this molecule: CC#CCn1c(N2CCC[C@@H](N)C2)nc2c1c(=O)n(Cc1nccnc1C#N)c(=O)n2C
Reply: < 4.30

---

Target: CYP2C19 (Homo sapiens (Human), UniProt P33261)
Sequence (P33261 whole entry): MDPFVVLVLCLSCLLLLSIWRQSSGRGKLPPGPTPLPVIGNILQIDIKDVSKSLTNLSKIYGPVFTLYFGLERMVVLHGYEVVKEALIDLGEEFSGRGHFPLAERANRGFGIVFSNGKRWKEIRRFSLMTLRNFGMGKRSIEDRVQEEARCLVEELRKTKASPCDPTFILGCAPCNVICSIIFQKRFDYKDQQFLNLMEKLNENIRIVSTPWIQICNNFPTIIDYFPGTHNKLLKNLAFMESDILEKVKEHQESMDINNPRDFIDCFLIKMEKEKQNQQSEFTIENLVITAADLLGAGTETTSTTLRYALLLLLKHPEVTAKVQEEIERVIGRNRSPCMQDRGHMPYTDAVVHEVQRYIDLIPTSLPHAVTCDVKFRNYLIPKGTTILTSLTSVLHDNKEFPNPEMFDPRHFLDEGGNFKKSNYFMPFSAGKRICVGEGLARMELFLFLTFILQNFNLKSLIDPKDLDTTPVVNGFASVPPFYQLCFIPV
Test: in vitro
Type: in vitro ADME
Details: human, microsomes
Measured Endpoint: inhibition at 15 µM (%)
A number alone suffices; assume %.

Ask: Fill in the blank: the reported inhibition at 15 µM of CC#CCn1c(N2CCC[C@@H](N)C2)nc2c1c(=O)n(Cc1nccnc1C#N)c(=O)n2C is ____.
Reply: 14

---

Assay: Pharmacokinetics experiments in CD-1 mice
Assay type: in vivo, mouse
Conditions: CD-1, mouse, plasma; intravenous injection 2 mg/kg
Measured Endpoint: clearance (mL/min/kg)
Your answer should be a plain number; it is taken to be in mL/min/kg.

Ask: Param item = CC#CCn1c(N2CCC[C@@H](N)C2)nc2c1c(=O)n(Cc1nccnc1C#N)c(=O)n2C ; retrieve measured clearance.
Reply: 59.1

---

Assay: Pharmacokinetics experiments in CD-1 mice
Assay type: in vivo, mouse
Conditions: CD-1, mouse, plasma, oral; gavage 5 mg/kg, 0.500 h; read-out: Plasma drug concentration
Measured Endpoint: concentration at 0.5 h (ng/mL)
Express it in ng/mL; write the number only.

Ask: Any idea what its concentration at 0.5 h is? The molecule is CC#CCn1c(N2CCC[C@@H](N)C2)nc2c1c(=O)n(Cc1nccnc1C#N)c(=O)n2C
Reply: 123

---

Biological target: CYP2C19 (Homo sapiens (Human))
Test: in vitro
Assay type: in vitro ADME
Conditions: human, microsomes
Measured Endpoint: inhibition at 1.5 µM

Ask: # lookup: inhibition at 1.5 µM of CC#CCn1c(N2CCC[C@@H](N)C2)nc2c1c(=O)n(Cc1nccnc1C#N)c(=O)n2C
Reply: 3.3%

---

Molecular target: CYP3A4 (Homo sapiens (Human), UniProt P08684)
Experiment: in vitro
Format: in vitro ADME
Settings: human, microsomes
Text: 1. Test method: human liver microsomes were used to carry out inhibition activity test of the compounds to CYP enzyme. […]
Measured Endpoint: inhibition at 15 µM (%)
Return type: number; implicit unit %.

Ask: What value of inhibition at 15 µM has been recorded for this entry: CC#CCn1c(N2CCC[C@@H](N)C2)nc2c1c(=O)n(Cc1nccnc1C#N)c(=O)n2C [Compound I-3]
Reply: 17.9

---

Experiment: Pharmacokinetics experiments in CD-1 mice
Assay type: in vivo, mouse
Settings: mouse, plasma, oral; gavage 5 mg/kg, CD-1 mice, 0.250 h; read-out: Plasma drug concentration
Measured Endpoint: concentration at 0.25 h (ng/mL)
Number only, in ng/mL; omit the unit.

Ask: Which measured concentration at 0.25 h value corresponds to CC#CCn1c(N2CCC[C@@H](N)C2)nc2c1c(=O)n(Cc1nccnc1C#N)c(=O)n2C ?
Reply: 48

---

Test: Pharmacokinetics experiments in CD-1 mice
Assay type: in vivo, mouse
Settings: CD-1, mouse, plasma, po; gavage 5 mg/kg
Measured Endpoint: AUC(0-inf) (ng·h/mL)
Provide only the numeric value, understood in ng·h/mL.

Ask: # input compound: CC#CCn1c(N2CCC[C@@H](N)C2)nc2c1c(=O)n(Cc1nccnc1C#N)c(=O)n2C ; wanted: its AUC(0-inf)
Reply: 858

---

Target: CYP2C9 (Homo sapiens (Human), UniProt P11712)
Sequence (P11712 whole entry): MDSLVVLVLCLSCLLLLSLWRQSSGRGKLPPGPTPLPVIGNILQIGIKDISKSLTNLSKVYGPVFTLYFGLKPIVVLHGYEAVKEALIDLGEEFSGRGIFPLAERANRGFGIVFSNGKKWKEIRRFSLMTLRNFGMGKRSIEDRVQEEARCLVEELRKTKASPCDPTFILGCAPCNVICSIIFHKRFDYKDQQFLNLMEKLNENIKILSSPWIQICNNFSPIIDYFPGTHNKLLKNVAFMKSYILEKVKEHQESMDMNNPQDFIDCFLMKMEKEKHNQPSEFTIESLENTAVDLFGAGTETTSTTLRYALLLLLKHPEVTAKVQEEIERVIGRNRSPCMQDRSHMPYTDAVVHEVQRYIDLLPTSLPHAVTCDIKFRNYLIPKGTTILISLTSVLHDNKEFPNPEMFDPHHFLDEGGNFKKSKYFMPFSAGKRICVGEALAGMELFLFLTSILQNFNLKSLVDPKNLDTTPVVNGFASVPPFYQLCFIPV
Assay: in vitro
Assay type: in vitro ADME
Details: human, microsomes
Measured Endpoint: inhibition at 15 µM (%)
Record the value in %, omitting the unit from your answer.

Ask: I'm curious: which inhibition at 15 µM was measured for CC#CCn1c(N2CCC[C@@H](N)C2)nc2c1c(=O)n(Cc1nccnc1C#N)c(=O)n2C tested on CYP2C9 (Homo sapiens (Human), UniProt P11712)?
Reply: 12.1

---

Experiment: Pharmacokinetics experiments in CD-1 mice
Type: in vivo, mouse
Settings: mouse, plasma; intravenous injection 2 mg/kg, CD-1 mice, 0.5 min; read-out: Plasma drug concentration
Measured Endpoint: concentration at 0.5 min (ng/mL)
// return numeric value only (unit: ng/mL, not printed)

Ask: Looking for the measured concentration at 0.5 min of CC#CCn1c(N2CCC[C@@H](N)C2)nc2c1c(=O)n(Cc1nccnc1C#N)c(=O)n2C , can you help?
Reply: 759

---

Target: CYP2D6 (Homo sapiens (Human))
Measured Endpoint: IC50

Ask: Request: IC50, test system CYP2D6 (Homo sapiens (Human)), entry CC#CCn1c(N2CCC[C@@H](N)C2)nc2c1c(=O)n(Cc1nccnc1C#N)c(=O)n2C
Reply: > 50 µM

---

Assay: Pharmacokinetics experiments in CD-1 mice
Format: in vivo, mouse
Settings: CD-1, mouse, plasma; intravenous injection 2 mg/kg; read-out: MRT0-int
Measured Endpoint: MRT (min)
Use min as the unit, but write only the number.

Ask: I am curious: what MRT value has been reported for CC#CCn1c(N2CCC[C@@H](N)C2)nc2c1c(=O)n(Cc1nccnc1C#N)c(=O)n2C ?
Reply: 57.2

---

Test: Pharmacokinetics experiments in CD-1 mice
Assay type: in vivo, mouse
Conditions: CD-1, mouse, plasma; intravenous injection 2 mg/kg, 4.00 h; read-out: Plasma drug concentration
Measured Endpoint: concentration at 4 h (ng/mL)
Quick reminder: number only, in ng/mL, skip the unit.

Ask: Please look up its concentration at 4 h: CC#CCn1c(N2CCC[C@@H](N)C2)nc2c1c(=O)n(Cc1nccnc1C#N)c(=O)n2C
Reply: 11.9

---

Assay: Pharmacokinetics experiments in CD-1 mice
Format: in vivo, mouse
Details: CD-1, mouse, plasma; intravenous injection 2 mg/kg
Measured Endpoint: AUC(0-t) (ng·h/mL)
Write the answer as a number in ng·h/mL, unit excluded.

Ask: Need AUC(0-t) of CC#CCn1c(N2CCC[C@@H](N)C2)nc2c1c(=O)n(Cc1nccnc1C#N)c(=O)n2C [Compound I-3] , thanks.
Reply: 555
